Tested on: Gram-negative bacteria
Type: cell-based, E. coli, P. aeruginosa, K. pneumoniae
Conditions: ratio of MHC to GM, Gram-negative bacteria
Where no end group is shown, it is not given here.
Sorting guide: entries reporting TI, therapeutic index beneath 2 go in the 1 pile, the rest go in the 0 pile.

Does the reported TI, therapeutic index of the following substance sit strictly below 2? AIGSILGRLAKGLPTLISWIKNR-NH2 [A(A8R)]
1

Does the reported TI, therapeutic index of the following substance sit strictly below 2? RIGSILGALAKGLPTLISWIKNR-NH2 [A(A1R)]
1

Does the reported TI, therapeutic index of the following substance sit strictly below 2? AIGSILGALAKGLPTLRSWIKNR-NH2 [A(I17R)]
1
